molecular target: Leukotriene B4 receptor 1 (Homo sapiens, UniProt Q15722); assay: Leukotriene B4 receptor antagonistic activity was measured by the inhibition of LTB4 induced [Ca2+] release from human PMNs
Sequence (Q15722 whole entry): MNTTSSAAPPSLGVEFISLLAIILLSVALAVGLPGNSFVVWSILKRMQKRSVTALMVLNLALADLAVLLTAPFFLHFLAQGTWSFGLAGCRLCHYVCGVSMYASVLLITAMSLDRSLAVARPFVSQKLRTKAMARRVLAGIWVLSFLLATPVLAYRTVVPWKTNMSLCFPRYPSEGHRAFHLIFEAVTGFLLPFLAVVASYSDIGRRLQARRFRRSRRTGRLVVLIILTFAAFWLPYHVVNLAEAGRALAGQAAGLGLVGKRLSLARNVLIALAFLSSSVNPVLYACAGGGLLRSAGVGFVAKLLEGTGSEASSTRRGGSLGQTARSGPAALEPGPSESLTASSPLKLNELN
ASSAY METRIC: Ki (nM)
Give bare numbers, in nM.

Asked: Name the recorded Ki of the item CCN(CC)C(=O)/C=C(\C)c1ccc(OC(C)c2ccccc2)c(CCC(=O)O)c1 (stereo unspecified) in your answer.
Given back: 9.5

----------
target: Leukotriene B4 receptor (Homo sapiens, UniProt Q9NPC1+Q15722); experiment: LTB4 receptor antagonistic activity as inhibition of LTB4-induced [Ca2+] release from human PMNs; type: functional
Label key: met means Ki under 0.02 µM; not met means Ki of 0.02 µM or more.

Example results:
>  <MOLECULE>
CCN(CC)C(=O)/C=C(\C)c1ccc(CCc2ccccc2)c(OCC(=O)O)c1

>  <EXPERIMENTAL TARGET>
Leukotriene B4 receptor (Homo sapiens, UniProt Q9NPC1+Q15722)

>  <GROUP LABEL>
met

$$$$
>  <MOLECULE>
CCN(CC)C(=O)/C=C(\C)c1ccc(OCc2ccccc2F)c(OCC(=O)O)c1

>  <EXPERIMENTAL TARGET>
Leukotriene B4 receptor (Homo sapiens, UniProt Q9NPC1+Q15722)

>  <GROUP LABEL>
not met

$$$$

Asked: Below 0.02 µM on Ki? Entry CCN(CC)C(=O)/C=C(\C)c1ccc(OC(C)c2ccccc2)c(CC(=O)O)c1 (stereo not drawn)
Given back: met

Asked: Below 0.02 µM on Ki? Entry CCN(CC)C(=O)/C=C(\C)c1ccc(OCc2ccccc2)c(OCC(=O)O)c1
Given back: not met

Asked: Below 0.02 µM on Ki? Entry CCN(CC)C(=O)/C=C(\C)c1ccc(OCc2c(Cl)cccc2Cl)c(OCC(=O)O)c1
Given back: met

Asked: Below 0.02 µM on Ki? Entry CCN(CC)C(=O)/C=C(\C)c1cc(OCC(=O)O)cc(OC(C)c2ccccc2)c1 (stereo not drawn)
Given back: met

Asked: Below 0.02 µM on Ki? Entry CCN(CC)C(=O)/C=C(\C)c1ccc(OC(C)c2ccccc2)c(OCCC(=O)O)c1 (stereo not drawn)
Given back: not met

Asked: Below 0.02 µM on Ki? Entry CCN(CC)C(=O)/C=C(\C)c1ccc(OC(c2ccccc2)c2ccccc2)c(OCC(=O)O)c1
Given back: met

Asked: Below 0.02 µM on Ki? Entry CCN(CC)C(=O)/C=C(\C)c1ccc(OC(C)c2ccccc2)c(OCC(=O)O)c1 (stereo not drawn)
Given back: met

Asked: Below 0.02 µM on Ki? Entry CCN(CC)C(=O)/C=C(\C)c1ccc(OCc2c(F)cccc2F)c(OCC(=O)O)c1
Given back: met

Asked: Below 0.02 µM on Ki? Entry CCN(CC)C(=O)/C=C(\C)c1ccc(OCc2ccccc2Cl)c(OCC(=O)O)c1
Given back: met

Asked: Below 0.02 µM on Ki? Entry CCN(CC)C(=O)/C=C(\C)c1ccc(OCc2c(F)cccc2F)c(CC(=O)O)c1
Given back: not met

Asked: Below 0.02 µM on Ki? Entry CCN(CC)C(=O)/C=C(\C)c1ccc(SCc2ccccc2)c(OCC(=O)O)c1
Given back: not met
